Target: human rhinovirus 16 RNA polymerase (Human rhinovirus 16 (HRV-16), UniProt Q82122)
Sequence (Q82122 1694-2153 limits assumed): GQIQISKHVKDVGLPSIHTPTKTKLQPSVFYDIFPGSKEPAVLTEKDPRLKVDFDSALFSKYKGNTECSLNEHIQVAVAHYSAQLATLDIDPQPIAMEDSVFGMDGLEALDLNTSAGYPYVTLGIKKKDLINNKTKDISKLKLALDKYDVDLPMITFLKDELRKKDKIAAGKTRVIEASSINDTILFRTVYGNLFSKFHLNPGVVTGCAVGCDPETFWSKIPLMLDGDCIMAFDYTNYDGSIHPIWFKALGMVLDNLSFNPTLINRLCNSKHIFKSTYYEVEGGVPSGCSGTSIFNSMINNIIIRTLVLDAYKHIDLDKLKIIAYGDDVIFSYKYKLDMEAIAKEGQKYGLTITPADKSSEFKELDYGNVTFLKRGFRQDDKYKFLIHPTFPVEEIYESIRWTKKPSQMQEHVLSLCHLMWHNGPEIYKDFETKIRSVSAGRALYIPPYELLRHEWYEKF
Conditions: recombinant enzyme, tritiated NMP incorporation, 2.5 hours at 30° C.; read-out: HRV16pol IC50
Measurement name: IC50 (µM)
Numbers only, in µM.

Each compound below has a recorded value; state its IC50.
1. N#C[C@@]1(c2ccc3c(N)ncnn23)O[C@H](COP(=O)(O)OP(=O)(O)OP(=O)(O)O)[C@@H](O)[C@H]1O [Compound C2, reference compound]
2. N#C[C@@]1(c2ccc3c(N)ncnn23)O[C@](F)(COP(=O)(O)OP(=O)(O)OP(=O)(O)O)[C@@H](O)[C@H]1O [Compound 12]
3. N#C[C@@]1(c2ccc3c(N)ncnn23)O[C@](CF)(COP(=O)(O)OP(=O)(O)OP(=O)(O)O)[C@@H](O)[C@H]1O [Compound 13]
4. N#C[C@@]1(c2ccc3c(N)ncnn23)O[C@@](COP(=O)(O)OP(=O)(O)OP(=O)(O)O)(N=[N+]=[N-])[C@@H](O)[C@H]1O [Compound 14]

# output
0.27
0.13
0.21
0.04

###

Target: hepatitis C virus RNA polymerase (Hepatitis C virus genotype 1a (isolate H77) (HCV))
Sequence (P27958 2421-3011 limits assumed): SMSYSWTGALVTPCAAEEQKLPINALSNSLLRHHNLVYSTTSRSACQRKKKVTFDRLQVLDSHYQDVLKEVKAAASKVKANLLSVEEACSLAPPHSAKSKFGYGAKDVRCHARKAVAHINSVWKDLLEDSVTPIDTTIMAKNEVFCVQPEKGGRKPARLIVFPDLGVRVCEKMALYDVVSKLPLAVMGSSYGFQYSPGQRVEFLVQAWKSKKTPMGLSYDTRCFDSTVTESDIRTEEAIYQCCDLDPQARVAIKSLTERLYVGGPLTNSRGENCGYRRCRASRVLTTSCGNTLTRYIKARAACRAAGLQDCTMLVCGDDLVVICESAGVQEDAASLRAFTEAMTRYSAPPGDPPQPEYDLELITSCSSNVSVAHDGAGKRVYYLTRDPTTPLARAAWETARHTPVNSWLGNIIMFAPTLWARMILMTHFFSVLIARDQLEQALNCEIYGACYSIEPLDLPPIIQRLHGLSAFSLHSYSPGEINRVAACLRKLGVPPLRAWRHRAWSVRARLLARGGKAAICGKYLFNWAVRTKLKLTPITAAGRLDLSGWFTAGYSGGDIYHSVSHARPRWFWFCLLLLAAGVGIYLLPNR
Assay: HCV polymerase assay (HCVpol)
Type: biochemical
Conditions: recombinant enzyme, tritiated NMP incorporation, 2.5 hours at 30° C.
Measurement name: pIC50
One number for each entry, as −log10 of the molar value.

Record excerpt, results attached:
Compound	Measurement name	Reported measurement
N#C[C@@]1(c2ccc3c(N)ncnn23)O[C@H](COP(=O)(O)OP(=O)(O)OP(=O)(O)O)[C@@H](O)[C@H]1O [Compound C2, reference compound]	pIC50	6.00
N#C[C@@]1(c2ccc3c(N)ncnn23)O[C@](F)(COP(=O)(O)OP(=O)(O)OP(=O)(O)O)[C@@H](O)[C@H]1O [Compound 12]	pIC50	6.40

Next compound, please.
# input Field: pIC50 (hepatitis C virus RNA polymerase (Hepatitis C virus genotype 1a (isolate H77) (HCV))). Entry: N#C[C@@]1(c2ccc3c(N)ncnn23)O[C@@](COP(=O)(O)OP(=O)(O)OP(=O)(O)O)(N=[N+]=[N-])[C@@H](O)[C@H]1O [Compound 14]
# output 6.52

###

Tested on: Dengue virus type 2 NG-C or Dengue virus type 4 H241
Assay: Dengue antiviral assay (DENV)
Format: cell-based
Details: Dengue virus, Huh7.5, 144 h, Huh-7.5 cells, five to six days, CellTiter-Glo
Measurement name: EC50 (nM)
Answers are plain numbers, in nM.

Record excerpt, results attached:
Molecule	System tested	EC50 (nM)
CCC(CC)COC(=O)[C@@H](C)NP(=O)(OC[C@@]1(F)O[C@@](C#N)(c2ccc3c(N)ncnn23)[C@H](O)[C@@H]1O)Oc1ccccc1 (stereo partly drawn) [Compound 9]	Dengue virus type 2 NG-C or Dengue virus type 4 H241	70
CC(C)OC(=O)[C@@H](C)NP(=O)(OC[C@@]1(F)O[C@@](C#N)(c2ccc3c(N)ncnn23)[C@H](O)[C@@H]1O)Oc1ccccc1 (stereo partly drawn) [Compound 5]	Dengue virus type 2 NG-C or Dengue virus type 4 H241	7370

Next molecule, please.
# input Item CC(C)OC(=O)[C@H](C)NP(=O)(OC[C@@]1(F)O[C@@](C#N)(c2ccc3c(N)ncnn23)[C@H](O)[C@@H]1O)Oc1ccccc1 (stereo partly drawn) [Compound 6] has what recorded EC50?
# output 250
